Reported solubility values follow for various compounds
test_name: physchem
experimental_parameters: organic solvent or mixture, solubility in Toluene

COc1ccc(N(c2ccc(OC)cc2)c2ccc(-c3ccc(N(c4ccc(OC)cc4)c4ccc(C5(c6ccc(N(c7ccc(OC)cc7)c7ccc(-c8ccc(N(c9ccc(OC)cc9)c9ccc(OC)cc9)cc8)cc7)cc6)CCCCC5)cc4)cc3)cc2)cc1    > 270 mg/mL

Consider the record given below.
Given the entry `COc1ccc(N(c2ccc(OC)cc2)c2ccc(-c3ccc(N(c4ccc(OC)cc4)c4ccc5c(c4)c4cc(N(c6ccc(OC)cc6)c6ccc(-c7ccc(N(c8ccc(OC)cc8)c8ccc(OC)cc8)cc7)cc6)ccc4n5-c4ccccc4)cc3)cc2)cc1` , report its measured solubility.
490 to 980 mg/mL

====

test_name: physchem
experimental_parameters: organic solvent or mixture, solubility in Ethyl acetate
Reported solubility values follow for various compounds

COc1ccc(N(c2ccc(OC)cc2)c2ccc(-c3ccc(N(c4ccc(-c5ccc(N(c6ccc(-c7ccc(N(c8ccc(OC)cc8)c8ccc(OC)cc8)cc7)cc6)c6ccc7c(c6)C(C)(C)c6ccccc6-7)cc5)cc4)c4ccc5c(c4)C(C)(C)c4ccccc4-5)cc3)cc2)cc1 [ID369]    140 to 280 mg/mL
COc1ccc(N(c2ccc(OC)cc2)c2ccc(-c3ccc(N(c4ccccc4)c4ccc(-c5ccc(N(c6ccccc6)c6ccc(-c7ccc(N(c8ccc(OC)cc8)c8ccc(OC)cc8)cc7)cc6)cc5)cc4)cc3)cc2)cc1 [ID321]    15 mg/mL
COc1ccc(N(c2ccc(OC)cc2)c2ccc(-c3ccc(N(c4ccc(-c5ccc(N(c6ccc(-c7ccc(N(c8ccc(OC)cc8)c8ccc(OC)cc8)cc7)cc6)c6cc(F)c(OC)c(F)c6)cc5)cc4)c4cc(F)c(OC)c(F)c4)cc3)cc2)cc1 [ID629]    > 1300 mg/mL
COc1ccc(N(c2ccc(OC)cc2)c2ccc(-c3ccc(N(c4ccc(-c5ccc(N(c6ccc(-c7ccc(N(c8ccc(OC)cc8)c8ccc(OC)cc8)cc7)cc6)c6ccc(C(C)(C)C)cc6)cc5)cc4)c4ccc(C(C)(C)C)cc4)cc3)cc2)cc1 [ID368]    > 380 mg/mL
CCOc1ccc(N(c2ccc(C3=CCC(N(c4ccc(OC)cc4)c4ccc(-c5ccc(N(c6ccc(OC)cc6)c6ccc(-c7ccc(N(c8ccc(OCC)cc8)c8cccc9ccccc89)cc7)cc6)cc5)cc4)C=C3)cc2)c2cccc3ccccc23)cc1 (centres unmarked) [ID565]    < 40 mg/mL
COc1ccc(N(c2ccc(-c3ccc(N(c4ccc(OC)cc4)c4ccc(-c5ccc(N(c6ccc(OC)cc6)c6ccc7c(c6)C(C)(C)c6ccccc6-7)cc5)cc4)cc3)cc2)c2ccc(-c3ccc(N(c4ccc(OC)cc4)c4ccc5c(c4)C(C)(C)c4ccccc4-5)cc3)cc2)cc1 [ID453]    40 mg/mL
COc1ccc(N(c2ccc(N(c3ccccc3)c3ccc(N(c4ccccc4)c4ccc(N(c5ccc(OC)cc5)c5ccc6c(c5)C(C)(C)c5ccccc5-6)cc4)cc3)cc2)c2ccc3c(c2)C(C)(C)c2ccccc2-3)cc1 [ID366]    > 560 mg/mL

Consider the record given below.
Given the entry COc1ccc(N(c2ccc(OC)cc2)c2ccc3c(c2)C(C)(C)c2cc(N(c4ccc(OC)cc4)c4ccc(-c5ccc(N(c6ccc(OC)cc6)c6ccc7c(c6)C(C)(C)c6cc(N(c8ccc(OC)cc8)c8ccc(OC)cc8)ccc6-7)cc5)cc4)ccc2-3)cc1 [ID518] , report its measured solubility.
> 400 mg/mL

====

test_name: physchem
experimental_parameters: organic solvent or mixture, solubility in Toluene
endpoint_label: solubility

Recorded solubility, per entry:
COc1ccc(N(c2ccc(OC)cc2)c2ccc(-c3ccc(N(c4ccccc4)c4ccc(-c5ccc(N(c6ccccc6)c6ccc(-c7ccc(N(c8ccc(OC)cc8)c8ccc(OC)cc8)cc7)cc6)cc5)cc4)cc3)cc2)cc1 [ID321]    > 100 mg/mL
COc1ccc(N(c2ccc(C)cc2)c2ccc(-c3ccc(N(c4ccc(OC)cc4)c4ccc(-c5ccc(N(c6ccc(OC)cc6)c6ccc(-c7ccc(N(c8ccc(C)cc8)c8ccc(OC)cc8)cc7)cc6)cc5)cc4)cc3)cc2)cc1 [ID572]    > 500 mg/mL
COc1ccc(N(c2ccc(OC)cc2)c2ccc(-c3ccc(N(c4ccc(OC)cc4)c4ccc5c(c4)Cc4cc(N(c6ccc(OC)cc6)c6ccc(-c7ccc(N(c8ccc(OC)cc8)c8ccc(OC)cc8)cc7)cc6)ccc4-5)cc3)cc2)cc1 [ID523]    900 to 1800 mg/mL

Given the entry COc1ccc(N(c2ccc(OC)cc2)c2ccc3c(c2)C2(c4cc(N(c5ccc(OC)cc5)c5ccc(OC)cc5)ccc4-3)c3cc(N(c4ccc(OC)cc4)c4ccc(OC)cc4)ccc3-c3ccc(N(c4ccc(OC)cc4)c4ccc(OC)cc4)cc32)cc1 [spiro-MeOTAD, reference compound] , report its measured solubility.
100 mg/mL

Given the entry COc1ccc(N(c2ccc(N(c3ccccc3)c3ccc(N(c4ccccc4)c4ccc(N(c5ccc(OC)cc5)c5ccc6c(c5)C(C)(C)c5ccccc5-6)cc4)cc3)cc2)c2ccc3c(c2)C(C)(C)c2ccccc2-3)cc1 [ID366] , report its measured solubility.
> 380 mg/mL

Given the entry COc1ccc(N(c2ccc(OC)cc2)c2ccc(-c3ccc(N(c4ccc(-c5ccc(N(c6ccc(-c7ccc(N(c8ccc(OC)cc8)c8ccc(OC)cc8)cc7)cc6)c6cc(F)c(OC)c(F)c6)cc5)cc4)c4cc(F)c(OC)c(F)c4)cc3)cc2)cc1 [ID629] , report its measured solubility.
> 1500 mg/mL

====

test_name: physchem
experimental_parameters: organic solvent or mixture, solubility L in chlorobenzene
endpoint_label: solubility

Recorded solubility, per entry:
COc1ccc(N(c2ccc(OC)cc2)c2ccc3c(c2)C(C)(C)c2cc(N(c4ccc(OC)cc4)c4ccc(-c5ccc(N(c6ccc(OC)cc6)c6ccc7c(c6)C(C)(C)c6cc(N(c8ccc(OC)cc8)c8ccc(OC)cc8)ccc6-7)cc5)cc4)ccc2-3)cc1    400 to 800 mg/mL
CCOc1ccc(N(c2ccc(C3=CCC(N(c4ccc(OC)cc4)c4ccc(-c5ccc(N(c6ccc(OC)cc6)c6ccc(-c7ccc(N(c8ccc(OCC)cc8)c8cccc9ccccc89)cc7)cc6)cc5)cc4)C=C3)cc2)c2cccc3ccccc23)cc1 (centres unmarked)    > 900 mg/mL
COc1ccc(N(c2ccc(N(c3ccccc3)c3ccc(N(c4ccccc4)c4ccc(N(c5ccc(OC)cc5)c5ccc6c(c5)C(C)(C)c5ccccc5-6)cc4)cc3)cc2)c2ccc3c(c2)C(C)(C)c2ccccc2-3)cc1    > 1100 mg/mL
COc1ccc(N(c2ccc(-c3ccc(N(c4ccc(OC)cc4)c4ccc(-c5ccc(N(c6ccc(OC)cc6)c6ccc(C)c(C)c6)cc5)cc4)cc3)cc2)c2ccc(-c3ccc(N(c4ccc(OC)cc4)c4ccc(C)c(C)c4)cc3)cc2)cc1    450 to 900 mg/mL
COc1ccc(N(c2ccc(OC)cc2)c2ccc(-c3ccc(N(c4ccc(-c5ccc(N(c6ccc(-c7ccc(N(c8ccc(OC)cc8)c8ccc(OC)cc8)cc7)cc6)c6ccc7c(c6)C(C)(C)c6ccccc6-7)cc5)cc4)c4ccc5c(c4)C(C)(C)c4ccccc4-5)cc3)cc2)cc1    300 to 450 mg/mL

Given the entry `COc1ccc(N(c2ccc(OC)cc2)c2ccc(-c3ccc(N(c4ccc(OC)cc4)c4ccc(-c5ccc(N(c6ccc(OC)cc6)c6ccc(-c7ccc(N(c8ccc(OC)cc8)c8ccc(OC)cc8)cc7)cc6)c(C)c5)cc4C)cc3)cc2)cc1` , report its measured solubility.
> 1300 mg/mL

Given the entry `COc1ccc(N(c2ccc(OC)cc2)c2ccc(-c3ccc(N(c4ccc(OC)cc4)c4ccc(-c5ccc(N(c6ccc(OC)cc6)c6ccc(-c7ccc(N(c8ccc(OC)cc8)c8ccc(OC)cc8)cc7)cc6)cc5)cc4)cc3)cc2)cc1` , report its measured solubility.
700 to 1000 mg/mL

Given the entry `COc1ccc(N(c2ccc(-c3ccc(N(c4ccc(OC)cc4)c4ccc(-c5ccc(N(c6ccc(OC)cc6)c6ccc7c(c6)C(C)(C)c6ccccc6-7)cc5)cc4)cc3)cc2)c2ccc(-c3ccc(N(c4ccc(OC)cc4)c4ccc5c(c4)C(C)(C)c4ccccc4-5)cc3)cc2)cc1` , report its measured solubility.
450 to 700 mg/mL

====

Reported solubility values follow for various compounds
test_name: physchem
experimental_parameters: organic solvent or mixture, solubility in Tetrahydrofuran

Recorded solubility, per entry:
COc1ccc(N(c2ccc(OC)cc2)c2ccc(-c3ccc(N(c4ccc(OC)cc4)c4ccc5c(c4)c4cc(N(c6ccc(OC)cc6)c6ccc(-c7ccc(N(c8ccc(OC)cc8)c8ccc(OC)cc8)cc7)cc6)ccc4n5-c4ccccc4)cc3)cc2)cc1 [ID522]    400 to 600 mg/mL
COc1ccc(N(c2ccc(N(c3ccccc3)c3ccc(N(c4ccccc4)c4ccc(N(c5ccc(OC)cc5)c5ccc6c(c5)C(C)(C)c5ccccc5-6)cc4)cc3)cc2)c2ccc3c(c2)C(C)(C)c2ccccc2-3)cc1 [ID366]    > 440 mg/mL
COc1ccc(N(c2ccc(OC)cc2)c2ccc(-c3ccc(N(c4ccc(OC)cc4)c4ccc(C5(c6ccc(N(c7ccc(OC)cc7)c7ccc(-c8ccc(N(c9ccc(OC)cc9)c9ccc(OC)cc9)cc8)cc7)cc6)CCCCC5)cc4)cc3)cc2)cc1 [ID452]    300 to 600 mg/mL
COc1ccc(N(c2ccc(OC)cc2)c2ccc(-c3ccc(N(c4ccc(-c5ccc(N(c6ccc(-c7ccc(N(c8ccc(OC)cc8)c8ccc(OC)cc8)cc7)cc6)c6cc(F)c(OC)c(F)c6)cc5)cc4)c4cc(F)c(OC)c(F)c4)cc3)cc2)cc1 [ID629]    > 2000 mg/mL
COc1ccc(N(c2ccc(-c3ccc(N(c4ccc(OC)cc4)c4ccc(-c5ccc(N(c6ccc(OC)cc6)c6ccc(C)c(C)c6)cc5)cc4)cc3)cc2)c2ccc(-c3ccc(N(c4ccc(OC)cc4)c4ccc(C)c(C)c4)cc3)cc2)cc1 [ID519]    > 500 mg/mL

Given the entry COc1ccc(N(c2ccc(OC)cc2)c2ccc(-c3ccc(N(c4ccc(-c5ccc(N(c6ccc(-c7ccc(N(c8ccc(OC)cc8)c8ccc(OC)cc8)cc7)cc6)c6ccc(C(C)(C)C)cc6)cc5)cc4)c4ccc(C(C)(C)C)cc4)cc3)cc2)cc1 [ID368] , report its measured solubility.
180 to 360 mg/mL

Given the entry COc1ccc(N(c2ccc(OC)cc2)c2ccc(-c3ccc(N(c4ccc(-c5ccc(N(c6ccc(-c7ccc(N(c8ccc(OC)cc8)c8ccc(OC)cc8)cc7)cc6)c6ccc7c(c6)C(C)(C)c6ccccc6-7)cc5)cc4)c4ccc5c(c4)C(C)(C)c4ccccc4-5)cc3)cc2)cc1 [ID369] , report its measured solubility.
100 to 150 mg/mL

Given the entry COc1ccc(N(c2ccc(OC)cc2)c2ccc(-c3ccc(N(c4ccc(OC)cc4)c4ccc5c(c4)Cc4cc(N(c6ccc(OC)cc6)c6ccc(-c7ccc(N(c8ccc(OC)cc8)c8ccc(OC)cc8)cc7)cc6)ccc4-5)cc3)cc2)cc1 [ID523] , report its measured solubility.
400 to 550 mg/mL

This collection of values is drawn from patent US20110297235A1.
